# system-under-test: equine FcRn (large alpha subunit p51) in complex with equine beta-2-microglobulin (equine) (UniProt F6XZ61)
# method: SPR (Biacore), pH 6
Please note: Kd exactly at 0.01 µM is 0.0. Only values below 0.01 µM get 1.0.

Task: is_below(Kd, 0.01 µM) for equine IgG7 Y436I mutant (antibody, part only; not given: Variable domains, not shown: another chain or arm of the molecule) constant: ASTTAPKVFPLASHSAATSGSTVALGCLVSSYFPEPVTVSWNSGALTSGVHTFPSVLQSSGLYSLSSMVTVPASSLKSQTYICNVAHPASSTKVDKKIVIKECGGCPTCPECLSVGPSVFIFPPKPKDVLMISRTPTVTCVVVDVGHDFPDVQFNWYVDGVETHTATTEPKQEQNNSTYRVVSILAIQHKDWLSGKEFKCKVNNQALPAPVQKTISKPTGQPREPQVYVLAPHRDELSKNKVSVTCLVKDFYPTDIDIEWKSNGQPEPETKYSTTPAQLDSDGSYFLYSKLTVETNRWQQGTTFTCAVMHEALHNHITEKSVSKSPGK ?
Output: 0.0

Task: is_below(Kd, 0.01 µM) for equine IgG7 T286K mutant (antibody, part only; not given: variable domains, not shown: another chain or arm of the molecule) constant: ASTTAPKVFPLASHSAATSGSTVALGCLVSSYFPEPVTVSWNSGALTSGVHTFPSVLQSSGLYSLSSMVTVPASSLKSQTYICNVAHPASSTKVDKKIVIKECGGCPTCPECLSVGPSVFIFPPKPKDVLMISRTPTVTCVVVDVGHDFPDVQFNWYVDGVETHKATTEPKQEQNNSTYRVVSILAIQHKDWLSGKEFKCKVNNQALPAPVQKTISKPTGQPREPQVYVLAPHRDELSKNKVSVTCLVKDFYPTDIDIEWKSNGQPEPETKYSTTPAQLDSDGSYFLYSKLTVETNRWQQGTTFTCAVMHEALHNHYTEKSVSKSPGK ?
Output: 0.0

Task: is_below(Kd, 0.01 µM) for equine IgG7 N434D mutant (antibody, part only; not given: variable domains, not shown: another chain or arm of the molecule) constant: ASTTAPKVFPLASHSAATSGSTVALGCLVSSYFPEPVTVSWNSGALTSGVHTFPSVLQSSGLYSLSSMVTVPASSLKSQTYICNVAHPASSTKVDKKIVIKECGGCPTCPECLSVGPSVFIFPPKPKDVLMISRTPTVTCVVVDVGHDFPDVQFNWYVDGVETHTATTEPKQEQNNSTYRVVSILAIQHKDWLSGKEFKCKVNNQALPAPVQKTISKPTGQPREPQVYVLAPHRDELSKNKVSVTCLVKDFYPTDIDIEWKSNGQPEPETKYSTTPAQLDSDGSYFLYSKLTVETNRWQQGTTFTCAVMHEALHDHYTEKSVSKSPGK ?
Output: 1.0

Task: is_below(Kd, 0.01 µM) for equine IgG7 Y436R mutant (antibody, part only; not given: variable domains, not shown: another chain or arm of the molecule) constant: ASTTAPKVFPLASHSAATSGSTVALGCLVSSYFPEPVTVSWNSGALTSGVHTFPSVLQSSGLYSLSSMVTVPASSLKSQTYICNVAHPASSTKVDKKIVIKECGGCPTCPECLSVGPSVFIFPPKPKDVLMISRTPTVTCVVVDVGHDFPDVQFNWYVDGVETHTATTEPKQEQNNSTYRVVSILAIQHKDWLSGKEFKCKVNNQALPAPVQKTISKPTGQPREPQVYVLAPHRDELSKNKVSVTCLVKDFYPTDIDIEWKSNGQPEPETKYSTTPAQLDSDGSYFLYSKLTVETNRWQQGTTFTCAVMHEALHNHRTEKSVSKSPGK ?
Output: 1.0

Task: is_below(Kd, 0.01 µM) for equine IgG7 T286L mutant (antibody, part only; not given: Variable domains, not shown: another chain or arm of the molecule) constant: ASTTAPKVFPLASHSAATSGSTVALGCLVSSYFPEPVTVSWNSGALTSGVHTFPSVLQSSGLYSLSSMVTVPASSLKSQTYICNVAHPASSTKVDKKIVIKECGGCPTCPECLSVGPSVFIFPPKPKDVLMISRTPTVTCVVVDVGHDFPDVQFNWYVDGVETHLATTEPKQEQNNSTYRVVSILAIQHKDWLSGKEFKCKVNNQALPAPVQKTISKPTGQPREPQVYVLAPHRDELSKNKVSVTCLVKDFYPTDIDIEWKSNGQPEPETKYSTTPAQLDSDGSYFLYSKLTVETNRWQQGTTFTCAVMHEALHNHYTEKSVSKSPGK ?
Output: 0.0

Task: is_below(Kd, 0.01 µM) for equine IgG7 M428S mutant (antibody, part only; not given: variable domains, not shown: another chain or arm of the molecule) constant: ASTTAPKVFPLASHSAATSGSTVALGCLVSSYFPEPVTVSWNSGALTSGVHTFPSVLQSSGLYSLSSMVTVPASSLKSQTYICNVAHPASSTKVDKKIVIKECGGCPTCPECLSVGPSVFIFPPKPKDVLMISRTPTVTCVVVDVGHDFPDVQFNWYVDGVETHTATTEPKQEQNNSTYRVVSILAIQHKDWLSGKEFKCKVNNQALPAPVQKTISKPTGQPREPQVYVLAPHRDELSKNKVSVTCLVKDFYPTDIDIEWKSNGQPEPETKYSTTPAQLDSDGSYFLYSKLTVETNRWQQGTTFTCAVSHEALHNHYTEKSVSKSPGK ?
Output: 1.0

Task: is_below(Kd, 0.01 µM) for equine IgG7 A426D mutant (antibody, part only; not given: variable domains, not shown: another chain or arm of the molecule) constant: ASTTAPKVFPLASHSAATSGSTVALGCLVSSYFPEPVTVSWNSGALTSGVHTFPSVLQSSGLYSLSSMVTVPASSLKSQTYICNVAHPASSTKVDKKIVIKECGGCPTCPECLSVGPSVFIFPPKPKDVLMISRTPTVTCVVVDVGHDFPDVQFNWYVDGVETHTATTEPKQEQNNSTYRVVSILAIQHKDWLSGKEFKCKVNNQALPAPVQKTISKPTGQPREPQVYVLAPHRDELSKNKVSVTCLVKDFYPTDIDIEWKSNGQPEPETKYSTTPAQLDSDGSYFLYSKLTVETNRWQQGTTFTCDVMHEALHNHYTEKSVSKSPGK ?
Output: 0.0

Task: is_below(Kd, 0.01 µM) for equine IgG7 Y436N mutant (antibody, part only; not given: Variable domains, not shown: another chain or arm of the molecule) constant: ASTTAPKVFPLASHSAATSGSTVALGCLVSSYFPEPVTVSWNSGALTSGVHTFPSVLQSSGLYSLSSMVTVPASSLKSQTYICNVAHPASSTKVDKKIVIKECGGCPTCPECLSVGPSVFIFPPKPKDVLMISRTPTVTCVVVDVGHDFPDVQFNWYVDGVETHTATTEPKQEQNNSTYRVVSILAIQHKDWLSGKEFKCKVNNQALPAPVQKTISKPTGQPREPQVYVLAPHRDELSKNKVSVTCLVKDFYPTDIDIEWKSNGQPEPETKYSTTPAQLDSDGSYFLYSKLTVETNRWQQGTTFTCAVMHEALHNHNTEKSVSKSPGK ?
Output: 0.0
